Species on record: Rattus norvegicus
measurement.protocol: Open TG-GATES - Regimen: Daily Repeat
Type: toxicity, organism-based, Sprague-Dawley
Set-up: regimen Daily Repeat, gender Male, age 6 weeks
condition.parameters: in vivo, po, 1000 mg/kg, […], tissue Plasma, route gavage, dose level High, time 7 day
Could you please report measured A/G for the items listed next?
Lab note: record just the number, no unit beside it.

Exam item: Find the measured A/G of `O=C(O)c1ccccc1Nc1ccccc1` and report it.
Marked response: 0.9

Exam item: Find the measured A/G of CCCCNC(=O)NS(=O)(=O)c1ccc(C)cc1 [TOLBUTAMIDE] and report it.
Marked response: 0.9

Exam item: Find the measured A/G of CC(S)C(=O)NCC(=O)O (centres undefined) and report it.
Marked response: 1.2

Exam item: Find the measured A/G of `CC(=O)[C@@]1(O)CC[C@H]2[C@@H]3C=C(Cl)C4=CC(=O)CC[C@]4(C)[C@H]3CC[C@@]21C` and report it.
Marked response: 1.3

---

Species on record: Rattus norvegicus
measurement.protocol: Open TG-GATES - Regimen: Daily Repeat
Type: toxicity, organism-based, Sprague-Dawley
Design: regimen Daily Repeat, gender Male, age 6 weeks
condition.parameters: in vivo, po, 100 mg/kg, 72 h, tissue Plasma, route gavage, dose level Low, time 3 day
experimental.readout: ALP (IU/L)
Dear colleague, please return just the value in IU/L, with no unit written.

Exam item: Find the measured ALP of CC(=O)[C@@]1(O)CC[C@H]2[C@@H]3C=C(Cl)C4=CC(=O)CC[C@]4(C)[C@H]3CC[C@@]21C [CHLORMADINONE] and report it.
Marked response: 1589

Exam item: Find the measured ALP of CC(S)C(=O)NCC(=O)O (centres undefined) [TIOPRONIN] and report it.
Marked response: 1580

Exam item: Find the measured ALP of CCCCNC(=O)NS(=O)(=O)c1ccc(C)cc1 [TOLBUTAMIDE] and report it.
Marked response: 1905.6

Exam item: Find the measured ALP of O=C(O)c1ccccc1Nc1ccccc1 [FENAMIC ACID] and report it.
Marked response: 1990.6

---

Species on record: Rattus norvegicus
measurement.protocol: Open TG-GATES - Regimen: Daily Repeat
Type: toxicity, organism-based, Sprague-Dawley
Design: regimen Daily Repeat, gender Male, age 6 weeks
condition.parameters: in vivo, po, 100 mg/kg, […], tissue Blood, route gavage, dose level Low, time 14 day
experimental.readout: Lym (%)
Dear colleague, please return just the value in %, with no unit written.

Exam item: Find the measured Lym of CCCCNC(=O)NS(=O)(=O)c1ccc(C)cc1 [TOLBUTAMIDE] and report it.
Marked response: 81

Exam item: Find the measured Lym of O=C(O)c1ccccc1Nc1ccccc1 [FENAMIC ACID] and report it.
Marked response: 75.4

Exam item: Find the measured Lym of CC(S)C(=O)NCC(=O)O (centres undefined) [TIOPRONIN] and report it.
Marked response: 80.2

Exam item: Find the measured Lym of CC(=O)[C@@]1(O)CC[C@H]2[C@@H]3C=C(Cl)C4=CC(=O)CC[C@]4(C)[C@H]3CC[C@@]21C [CHLORMADINONE] and report it.
Marked response: 82

---

Organism: Rattus norvegicus
measurement.protocol: Open TG-GATES - Regimen: Daily Repeat
Assay type: toxicity, organism-based, Sprague-Dawley
Design: regimen Daily Repeat, gender Male, age 6 weeks
condition.parameters: in vivo, po, 0 mg/kg, […], tissue Plasma, route gavage, dose level Control, time 7 day
experimental.readout: IP (mg/dL)
Dear colleague, please return just the value in mg/dL, with no unit written.

Exam item: Find the measured IP of CC(S)C(=O)NCC(=O)O (centres undefined) and report it.
Marked response: 7.1

Exam item: Find the measured IP of `O=C(O)c1ccccc1Nc1ccccc1` and report it.
Marked response: 6.7

Exam item: Find the measured IP of `Nc1ccc(Cc2ccc(N)cc2)cc1` and report it.
Marked response: 6.8

Exam item: Find the measured IP of `CCO` and report it.
Marked response: 7.5

---

Species on record: Rattus norvegicus
measurement.protocol: Open TG-GATES - Regimen: Daily Repeat
Type: toxicity, organism-based, Sprague-Dawley
Parameters: regimen Daily Repeat, gender Male, age 6 weeks
condition.parameters: in vivo, po, 0 mg/kg, […], tissue Plasma, route gavage, dose level Control, time 7 day
experimental.readout: ALT (IU/L)
Dear colleague, please return just the value in IU/L, with no unit written.

Exam item: Find the measured ALT of `CN(C/C=C/C#CC(C)(C)C)Cc1cccc2ccccc12` and report it.
Marked response: 33.6

Exam item: Find the measured ALT of `CCN(CC)C(=S)SSC(=S)N(CC)CC` and report it.
Marked response: 43.6

Exam item: Find the measured ALT of CC(S)C(=O)NCC(=O)O (stereo not drawn) and report it.
Marked response: 37.4

---

Species: Rattus norvegicus
measurement.protocol: Open TG-GATES - Regimen: Daily Repeat
Type: toxicity, organism-based, Sprague-Dawley
Parameters: regimen Daily Repeat, gender Male, age 6 weeks
condition.parameters: in vivo, po, 300 mg/kg, […], tissue Plasma, route gavage, dose level Middle, time 14 day
Could you please report measured CRE for the items listed next?

Exam item: Find the measured CRE of `O=C(O)c1ccccc1Nc1ccccc1` and report it.
Marked response: 0.3 mg/dL

Exam item: Find the measured CRE of `CC(=O)[C@@]1(O)CC[C@H]2[C@@H]3C=C(Cl)C4=CC(=O)CC[C@]4(C)[C@H]3CC[C@@]21C` and report it.
Marked response: 0.2 mg/dL

Exam item: Find the measured CRE of CCCCNC(=O)NS(=O)(=O)c1ccc(C)cc1 [TOLBUTAMIDE] and report it.
Marked response: 0.2 mg/dL

Exam item: Find the measured CRE of CC(S)C(=O)NCC(=O)O (centres undefined) and report it.
Marked response: 0.2 mg/dL

---

Could you please report measured Na for the items listed next?
Species: Rattus norvegicus
measurement.protocol: Open TG-GATES - Regimen: Daily Repeat
Format: toxicity, organism-based, Sprague-Dawley
Parameters: regimen Daily Repeat, gender Male, age 6 weeks
condition.parameters: in vivo, po, 1000 mg/kg, […], tissue Plasma, route gavage, dose level High, time 28 day
Dear colleague, please return just the value in meq/L, with no unit written.

Exam item: Find the measured Na of `O=C(O)c1ccccc1Nc1ccccc1` and report it.
Marked response: 144.5

Exam item: Find the measured Na of `CC(=O)[C@@]1(O)CC[C@H]2[C@@H]3C=C(Cl)C4=CC(=O)CC[C@]4(C)[C@H]3CC[C@@]21C` and report it.
Marked response: 142

Exam item: Find the measured Na of CCCCNC(=O)NS(=O)(=O)c1ccc(C)cc1 [TOLBUTAMIDE] and report it.
Marked response: 143.2

Exam item: Find the measured Na of CC(S)C(=O)NCC(=O)O (centres undefined) and report it.
Marked response: 142.6

---

Species on record: Rattus norvegicus
measurement.protocol: Open TG-GATES - Regimen: Daily Repeat
Format: toxicity, organism-based, Sprague-Dawley
Parameters: regimen Daily Repeat, gender Male, age 6 weeks
condition.parameters: in vivo, po, 1000 mg/kg, […], tissue Plasma, route gavage, dose level High, time 14 day
experimental.readout: AST

Exam item: Find the measured AST of CC(=O)[C@@]1(O)CC[C@H]2[C@@H]3C=C(Cl)C4=CC(=O)CC[C@]4(C)[C@H]3CC[C@@]21C [CHLORMADINONE] and report it.
Marked response: 71.2 IU/L

Exam item: Find the measured AST of CCCCNC(=O)NS(=O)(=O)c1ccc(C)cc1 [TOLBUTAMIDE] and report it.
Marked response: 63.4 IU/L

Exam item: Find the measured AST of O=C(O)c1ccccc1Nc1ccccc1 [FENAMIC ACID] and report it.
Marked response: 57.3 IU/L

Exam item: Find the measured AST of CC(S)C(=O)NCC(=O)O (centres undefined) [TIOPRONIN] and report it.
Marked response: 70.4 IU/L

---

Species: Rattus norvegicus
measurement.protocol: Open TG-GATES - Regimen: Daily Repeat
Assay type: toxicity, organism-based, Sprague-Dawley
Design: regimen Daily Repeat, gender Male, age 6 weeks
condition.parameters: in vivo, po, 100 mg/kg, […], tissue Plasma, route gavage, dose level Low, time 7 day
experimental.readout: gamma-GTP (IU/L)
Dear colleague, please return just the value in IU/L, with no unit written.

Exam item: Find the measured gamma-GTP of CC(=O)[C@@]1(O)CC[C@H]2[C@@H]3C=C(Cl)C4=CC(=O)CC[C@]4(C)[C@H]3CC[C@@]21C [CHLORMADINONE] and report it.
Marked response: 2

Exam item: Find the measured gamma-GTP of CC(S)C(=O)NCC(=O)O (centres undefined) [TIOPRONIN] and report it.
Marked response: 2.2

Exam item: Find the measured gamma-GTP of O=C(O)c1ccccc1Nc1ccccc1 [FENAMIC ACID] and report it.
Marked response: 1

Exam item: Find the measured gamma-GTP of CCCCNC(=O)NS(=O)(=O)c1ccc(C)cc1 [TOLBUTAMIDE] and report it.
Marked response: 1.2
